src = a melting point compilation (Tetko et al.; mined from patent text by program, amines drawn as free bases though some values may be those of a salt)

# key: entry, value: melting point

Here's what some known entries look like.
MOLECULE	ASSAY_METRIC	RESULT
Cc1cc(-c2cc(C(F)F)n3ncc(C(=O)Nc4cccc(S(N)(=O)=O)c4)c3n2)ccc1C(F)(F)F	melting point	252 °C
O=[N+]([O-])c1cc(O)c(F)cc1F	melting point	117 to 119 °C
N#Cc1ccc(N2C(=O)NC3(CCOCC3)C2=O)cc1C(F)(F)F	melting point	192 to 193 °C

Short answer for `COc1cc(NC(=O)Nc2c(-c3ccccc3Cl)c3cc(C)ccc3oc2=O)cc(OC)c1OC(C)=O` : melting point was 238 to 240 °C

Short answer for `NC(=O)CNC(=O)c1cccc(-c2cccc3cc(Cc4cc(F)cc(C(F)(F)F)c4)sc23)c1` : melting point was 169 to 170 °C

Short answer for `Cn1ncc(/C=C/C(=O)Nc2ccc(Cc3nc4ccccc4[nH]3)cc2)c1-c1ccc(F)cc1` : melting point was > 300 °C

Short answer for `CCCc1nn2ncc(C(=O)OCC)c2n1Cc1ccc(-c2ccccc2-c2nc(=O)o[nH]2)cc1` : melting point was 227 to 228 °C

Short answer for `CC(=O)Nc1ccc(CNC(=O)c2ccccc2)cc1` : melting point was 175 to 177 °C

Short answer for `C#CCNc1nnc(-c2ccccc2)cc1C` : melting point was 101 °C

Short answer for `CCCCCCOc1ccc(C=[N+]([O-])CCCCCC[N+]([O-])=Cc2ccc(OCCCCCC)cc2)cc1` : melting point was 80 °C

Short answer for `ON=CCc1cccs1` : melting point was 92 °C

Short answer for `COc1ccc(-c2cc(=Nc3c(C)cc(C)cc3C)n(C)c(N)n2)cc1OC` : melting point was 192 to 195 °C

Short answer for `CCOCCOc1ccc(-c2ccc3c(c2)C=C(C(=O)OC)CCN3)cc1` : melting point was 102 to 108 °C

Short answer for CC(Oc1ncn(-c2ccc(Cl)c(Cl)c2)n1)C(=O)O (stereo not given) : melting point was 222 to 224 °C

Short answer for `CCCC(=O)COS(=O)(=O)c1ccc(C)cc1` : melting point was 33 to 35 °C
